Recorded pEC50 by entry
- assayed.system: human M1 receptor (hCHRM1) (Homo sapiens)
- Sequence (P11229 1-460): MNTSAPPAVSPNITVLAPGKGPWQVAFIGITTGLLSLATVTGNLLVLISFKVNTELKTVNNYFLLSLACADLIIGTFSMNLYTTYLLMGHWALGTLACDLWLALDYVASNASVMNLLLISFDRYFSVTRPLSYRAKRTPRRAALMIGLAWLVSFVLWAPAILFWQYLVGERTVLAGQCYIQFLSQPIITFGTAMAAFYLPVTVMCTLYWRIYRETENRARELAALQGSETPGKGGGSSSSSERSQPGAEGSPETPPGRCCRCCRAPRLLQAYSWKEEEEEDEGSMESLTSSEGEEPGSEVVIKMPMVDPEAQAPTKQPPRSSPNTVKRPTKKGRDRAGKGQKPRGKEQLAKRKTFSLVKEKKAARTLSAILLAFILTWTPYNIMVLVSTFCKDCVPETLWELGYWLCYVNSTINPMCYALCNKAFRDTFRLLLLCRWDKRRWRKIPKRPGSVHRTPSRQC
- experiment: Measurement of M1 receptor positive allosteric modulator (M1PAM) activity (IP1 HTRF, in presence of EC20 acetylcholine)
- condition.parameters: CHO-K1 cells stably expressing hCHRM1; acetylcholine at EC20 concentration; IP1 readout
Recall that pEC50 is obtained by taking minus log10 of the concentration measured in molar.

Below are worked cases with known answers.
{"molecule": "Cc1c(Cc2ccc(-c3cn(C)nn3)cc2)cc(C(=O)N[C@H]2CCOC[C@@H]2O)c2c1CCO2 [Example 1]", "measured.metric": "pEC50", "test.value": 8.10}
{"molecule": "COCCNC(=O)c1ccc(Cc2cc(C(=O)N[C@H]3CCOC[C@@H]3O)c3c(c2C)CCO3)cc1F [Example 27]", "measured.metric": "pEC50", "test.value": 7.85}
{"molecule": "Cc1c(Cc2ccc(C(N)=O)cc2)cc(C(=O)N[C@H]2CCOC[C@@H]2O)c2c1CCO2 [Example 5]", "measured.metric": "pEC50", "test.value": 7.92}
{"molecule": "Cc1c(Cc2ccc(C(=O)NC[C@H]3CCCO3)c(F)c2)cc(C(=O)N[C@H]2CCOC[C@@H]2O)c2c1CCO2 [Example 29]", "measured.metric": "pEC50", "test.value": 7.96}
{"molecule": "Cc1c(Cc2ccc(C(=O)NC3CC3)c(F)c2)cc(C(=O)N[C@H]2CCOC[C@@H]2O)c2c1CCO2 [Example 31]", "measured.metric": "pEC50", "test.value": 7.43}
{"molecule": "Cc1c(Cc2ccc(C(=O)NCCF)c(F)c2)cc(C(=O)N[C@H]2CCOC[C@@H]2O)c2c1CCO2 [Example 35]", "measured.metric": "pEC50", "test.value": 7.80}

## Task Reported pEC50 for Cc1nn(C)cc1-c1ccc(Cc2cc(C(=O)N[C@H]3CCOC[C@@H]3O)c3c(c2C)CCO3)cn1 [Example 3] : what is it?
## Result 7.34
